Property: median seed-adjusted z-score; scope: individual sequences
Experiment: Novel Modifiers of Survival Motor Neuron (SMN) Protein: Gene Identification via Genome-wide siRNA Screen;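 also: luminescence tracks full-length SMN protein made from the SMN2 reporter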
Settings: HEK293T SMN2-luciferase reporter, siRNA knockdown, 72 h; actives lie on both sides
The whole screen tested about 31,000 sequences, of which about 1,400 (4.5%) were called active. This excerpt belongs to a sample that is enriched for actives.
Simply state the number, no unit and no words.

sequence_content="AAGUACAUAUAACCACUUATT against RAB14" metric="median seed-adjusted z-score" readout_value=-0.0567
sequence_content="CCAGCAAUGAGAAAAAUCUTT against HOXA2" metric="median seed-adjusted z-score" readout_value=0.335
sequence_content="GUGAUGUCAUUAGGCAGAATT against CRIP3" metric="median seed-adjusted z-score" readout_value=1.7
sequence_content="CAAAGAACCUAUCCGCUUATT against GGA2" metric="median seed-adjusted z-score" readout_value=-0.142
sequence_content="GGAGCGGUUCAGAUCAAUATT against RAB39" metric="median seed-adjusted z-score" readout_value=-0.408

Could you now consider this next sequence?
According to the records, this sequence CAUGAACCCAGUGAAGAUATT against IRF6 displays median seed-adjusted z-score of -1.79

====

Test: Novel Modifiers of Survival Motor Neuron (SMN) Protein: Gene Identification via Genome-wide siRNA Screen;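 also: luminescence tracks full-length SMN protein made from the SMN2 reporter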
Details: HEK293T SMN2-luciferase reporter, siRNA knockdown, 72 h; actives lie on both sides
Hit rate of the full screen: of about 31,000 sequences, about 1,400 (4.5%) were called active. Many of the other results were omitted from the sample, so actives are more common in it than they were.
Property: median seed-adjusted z-score; scope: individual sequences
Simply state the number, no unit and no words.

According to the records, this sequence CCAGCAGCAUGGAAGUUGUTT against HSD3B7 displays median seed-adjusted z-score of -0.0819

====

Assay: Novel Modifiers of Survival Motor Neuron (SMN) Protein: Gene Identification via Genome-wide siRNA Screen;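 also: luminescence tracks full-length SMN protein made from the SMN2 reporter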
Conditions: HEK293T SMN2-luciferase reporter, siRNA knockdown, 72 h; actives lie on both sides
The campaign covered roughly 31,000 sequences. About 1,400 (4.5%) were called active. The full list was thinned out, with actives kept by preference.
Returns: string. Value is Fulfilled if measured median seed-adjusted z-score is below -0.1, and Not fulfilled if it is greater than or equal to it.

Solved entries (count: 2):
sequence_content="GCGACUACCUGUUUCAACATT against PELO" label_class="Not fulfilled"
sequence_content="GCACUUAUGCUGAUGAAGATT against ZNF398" label_class="Not fulfilled"

Please determine if CAGUGAAACUGCACCUCUATT against TGM1 is below -0.1 in terms of median seed-adjusted z-score.
Fulfilled

Please determine if CAACUUGGACAAGACCUUATT against GYS1 is below -0.1 in terms of median seed-adjusted z-score.
Not fulfilled

Please determine if UGUCCACGGUUAAAAUUAUTT against CCL16 is below -0.1 in terms of median seed-adjusted z-score.
Fulfilled

====

Experiment: Novel Modifiers of Survival Motor Neuron (SMN) Protein: Gene Identification via Genome-wide siRNA Screen;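 also: luminescence tracks full-length SMN protein made from the SMN2 reporter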
Conditions: HEK293T SMN2-luciferase reporter, siRNA knockdown, 72 h; actives lie on both sides
Screen size: about 31,000 sequences; about 1,400 (4.5%) were called active. This excerpt belongs to a sample that is enriched for actives.
metric: median seed-adjusted z-score
Simply state the number, no unit and no words.

Worked examples follow.
sequence_content="CAGAAGUUCUCAGACCUAATT against ZNF721" metric="median seed-adjusted z-score" readout_value=0.404
sequence_content="CAACAACAAUCAUAGCUGATT against SSBP1" metric="median seed-adjusted z-score" readout_value=-0.456
sequence_content="AGUAUGUGCUGAUCCGAGUTT against PHPT1" metric="median seed-adjusted z-score" readout_value=1.27

According to the records, this sequence GUAUCAAUCUUUGCGGAUATT against KL displays median seed-adjusted z-score of -0.267

According to the records, this sequence GCGGUAAACUCGACACGUUTT against MARK3 displays median seed-adjusted z-score of 0.271

According to the records, this sequence GAACGAGCUGGAUCCAUUATT against ARSF displays median seed-adjusted z-score of 0.111

According to the records, this sequence GGAACCUACCUGACUAAGATT against ARL9 displays median seed-adjusted z-score of 0.98

According to the records, this sequence GGGAAAGCUGGACUACUAATT against PIK3CB displays median seed-adjusted z-score of 0.0911

According to the records, this sequence GCACAGUAGUCACCAAUGATT against FUCA2 displays median seed-adjusted z-score of 0.562

According to the records, this sequence UCGUGGAGGUGAUCUAUUATT against RAB6C displays median seed-adjusted z-score of -1.08

According to the records, this sequence GCCUUGCGCUAAAUCUCGATT against NSD1 displays median seed-adjusted z-score of -0.372

According to the records, this sequence GGACCUAUGAGCAACGAAATT against ATP1A4 displays median seed-adjusted z-score of 0.116

According to the records, this sequence CAGACAUGAAGUAUAAGAATT against TCEA2 displays median seed-adjusted z-score of 0.552

According to the records, this sequence CGGUCACAAUUUGCGCUGATT against ST8SIA3 displays median seed-adjusted z-score of -0.848

====

Test: Novel Modifiers of Survival Motor Neuron (SMN) Protein: Gene Identification via Genome-wide siRNA Screen;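 also: luminescence tracks full-length SMN protein made from the SMN2 reporter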
Details: HEK293T SMN2-luciferase reporter, siRNA knockdown, 72 h; actives lie on both sides
Procedure: Spinal muscular atrophy (SMA) is the most common neuromuscular autosomal recessive disorder and one of the leading genetic causes of infant death. […] Briefly, 1 pmol of each siRNA was spotted to a well of a 384-well plate (Corning, Corning, NY) and 20 microL of serum-free DMEM containing […] of Lipofectamine RNAiMax (Life Technologies, Carlsbad, CA) was then added to each well. […] Raw luminescence reads were normalized to Ambion(R) Silencer(R) Negative Control #2 siRNA, then log10 transformed. […]
Screen size: about 31,000 sequences; about 1,400 (4.5%) were called active. This excerpt belongs to a sample that is enriched for actives.
Returns: string. Value is true if measured median seed-adjusted z-score is below 0.05, and false if it is greater than or equal to it.

Solved entries (count: 4):
sequence_content="GCAUGUACCAGGUUCAGUATT against LRFN1" label_class=false
sequence_content="CACCCUGCAGGUUCCCAUATT against HSD17B14" label_class=false
sequence_content="GGUUCAUGUUUGCAAUCUUTT against POLR2B" label_class=true
sequence_content="GGAGGCUUCUUUAUGAAUUTT against FXYD4" label_class=true

Please determine if GAACCACAAGGAGAAGUUUTT against PSMC3 is below 0.05 in terms of median seed-adjusted z-score.
true

Please determine if GGAGGUUAAAGUGAAGAUUTT against MORF4L2 is below 0.05 in terms of median seed-adjusted z-score.
false

Please determine if CGCCUGGUCUAUGAACUUUTT against SCARF1 is below 0.05 in terms of median seed-adjusted z-score.
true

Please determine if CCACCUACAGAGUGUCCUATT against EMID2 is below 0.05 in terms of median seed-adjusted z-score.
true

Please determine if CCUACAGCAGUGUCUAUGATT against EIF3C is below 0.05 in terms of median seed-adjusted z-score.
false

====

Assay: Novel Modifiers of Survival Motor Neuron (SMN) Protein: Gene Identification via Genome-wide siRNA Screen;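 also: luminescence tracks full-length SMN protein made from the SMN2 reporter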
Details: HEK293T SMN2-luciferase reporter, siRNA knockdown, 72 h; actives lie on both sides
The whole screen tested about 31,000 sequences, of which about 1,400 (4.5%) were called active. This is one part of a sample in which actives are shown more often than they occur.
Returns: string. Value is Fulfilled if measured median seed-adjusted z-score is below -0.2, and Not fulfilled if it is greater than or equal to it.

Solved entries (count: 8):
sequence_content="GGGAGGACCUGAACAAGAATT against TAOK2" label_class="Not fulfilled"
sequence_content="GAAAGUGCUCGGUGCCUUUTT against HBB" label_class="Not fulfilled"
sequence_content="GCUUUAACGUGUCUGUGCATT against SLC25A5" label_class="Not fulfilled"
sequence_content="GCAAUGCCCUCUAUCAAUATT against IP6K1" label_class=Fulfilled
sequence_content="GCCUGGAACUCGUUAGCAATT against TRMT11" label_class=Fulfilled
sequence_content="CGACUGAACAAACCCUAUATT against ERCC3" label_class="Not fulfilled"
sequence_content="CAGCAACCAAUGAUAUAUATT against POLR2K" label_class=Fulfilled
sequence_content="GAAGGAUUAGAAACCGCAATT against RNF144" label_class="Not fulfilled"

Please determine if CAGUGAGGCUGUUCUCGAATT against LIMCH1 is below -0.2 in terms of median seed-adjusted z-score.
Not fulfilled

Please determine if GGGUCUUACUGAUUCCACATT against A4GNT is below -0.2 in terms of median seed-adjusted z-score.
Not fulfilled

Please determine if CGGUUGAAGUGUAGGGAGATT against TCEA1 is below -0.2 in terms of median seed-adjusted z-score.
Not fulfilled

Please determine if GGAACACGCUGACAGGACATT against FZR1 is below -0.2 in terms of median seed-adjusted z-score.
Not fulfilled

Origin of values: PubChem BioAssay AID1347426
